Values from patent US10301272B2

So I've got a bunch of molecules here, and I need their pIC50 (REN) values.
- Measurement target: RORγ (Homo sapiens)
- Assay method text: RORγ Gal4 Reporter Gene Assay
- Format: cell-based

Worked cases, pIC50 (REN) given:
- CC(C)(C)NS(=O)(=O)c1ccc(-c2sc(C(=O)NC3CCS(=O)(=O)CC3)nc2CC2CCCCC2)c2ccccc12 [6/6]: 6.7/9.0/9.0
- N#CC1(NS(=O)(=O)c2ccc(-c3sc(C(=O)N4CC5(CCS(=O)(=O)CC5)C4)nc3CC3CCCCC3)c3ccccc23)CC1 [Example 14]: 6.7/7.6/7.7

Could I get pIC50 (REN) for every one of these entries?
1. CC1(C)COCCN1Cc1ccc(-c2sc(C(=O)NC3CCS(=O)(=O)CC3)nc2CC2CCCCC2)c2ccccc12 [7/26]
2. COC(c1nc(C(=O)N[C@H]2C[C@H](C(=O)O)C2)sc1-c1ccc(S(=O)(=O)NC(C)(C)C)c(Cl)c1Cl)C1CCCCC1 (stereo partly shown) [19/4]
3. CC(C)(C)NS(=O)(=O)c1ccc(-c2sc(C(=O)N3CC4(CCS(=O)(=O)CC4)C3)nc2CC2CCCCC2)c(Cl)c1Cl [6/45]

["6.8/7.7/7.9", "6.0/7.3/7.2", "7.1/7.9/8.0"]

* * *

Can you tell me pIC50 (FRET) for the items I'm about to list?
- Measurement target: RORγ ligand binding domain (LBD) (Homo sapiens (Human), UniProt P51449)
- Sequence (P51449 269-508): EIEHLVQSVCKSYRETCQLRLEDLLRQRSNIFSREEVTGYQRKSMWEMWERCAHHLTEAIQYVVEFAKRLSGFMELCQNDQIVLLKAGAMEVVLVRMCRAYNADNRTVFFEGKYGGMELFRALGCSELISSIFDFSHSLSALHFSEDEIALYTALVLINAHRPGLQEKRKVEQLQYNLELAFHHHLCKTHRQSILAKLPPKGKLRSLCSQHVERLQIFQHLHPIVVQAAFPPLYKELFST
- Assay method text: TR-FRET Activity Assay (ligand sensing assay, LANCE)
- Conditions used: TR-FRET, interaction of RORγ-LBD with coactivator peptide
Give bare numbers.

* CC(C)(C)c1cc(-c2sc(S(=O)(=O)NC(=O)OCc3ccccc3)nc2CC2CCCCC2)cc(C2(C)CC2)c1 [Example 12] | 5.5

Let's switch to this compound now.
Return reported pIC50 (FRET); argument: CC(C)(C)NS(=O)(=O)c1ccc(-c2sc(C(=O)NN3CCOCC3)nc2CC2CCCCC2)c(Cl)c1Cl [6/20]
6.9

* * *

Provide the reported pIC50 (REN) of each item.
- Measurement target: RORγ (Homo sapiens, UniProt P51449)
- Sequence (P51449 whole entry, looked up, the tested form may be a part): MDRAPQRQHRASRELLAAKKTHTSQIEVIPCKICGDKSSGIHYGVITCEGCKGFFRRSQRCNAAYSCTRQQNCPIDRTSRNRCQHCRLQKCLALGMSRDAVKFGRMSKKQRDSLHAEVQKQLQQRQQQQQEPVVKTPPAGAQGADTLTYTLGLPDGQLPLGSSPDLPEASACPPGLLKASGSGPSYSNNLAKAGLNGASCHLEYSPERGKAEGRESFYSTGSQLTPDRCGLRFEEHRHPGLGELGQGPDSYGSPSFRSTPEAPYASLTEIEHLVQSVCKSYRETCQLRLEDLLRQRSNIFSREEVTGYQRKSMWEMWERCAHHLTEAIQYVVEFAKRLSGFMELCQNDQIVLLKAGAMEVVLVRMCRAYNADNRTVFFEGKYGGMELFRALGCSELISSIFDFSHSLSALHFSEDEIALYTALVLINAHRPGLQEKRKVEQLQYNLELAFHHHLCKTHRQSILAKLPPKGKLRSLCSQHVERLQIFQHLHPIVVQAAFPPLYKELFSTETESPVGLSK
- Assay method text: RORγ Gal4 Reporter Gene Assay
- Format: cell-based

* COC(c1nc(C(=O)NC2CCOCC2)sc1-c1cc(C(C)(C)C)cc(C2(C)CC2)c1)C1CCCCC1 (stereo not drawn) | 6.8/7.1/7.1

Okay, here is my list. What is pIC50 (REN) for each of these?
1. CC(C)(O)CNC(=O)c1nc(CC2CCCCC2)c(-c2ccc(S(=O)(=O)NC3(C)COC3)c3ccccc23)s1
2. CC(C)(C)NS(=O)(=O)c1ccc(-c2oc(C(=O)NC3CCS(=O)(=O)CC3)nc2CC2CCCCC2)c2ccccc12
3. CC(C)(C)NS(=O)(=O)c1ccc(-c2sc(C(=O)N3CC4(CSC4)C3)nc2CC2CCCCC2)c(Cl)c1Cl
4. CC(C)(C)c1cc(-c2sc(C(=O)N[C@H]3C[C@H](C(=O)O)C3)nc2CC2CCCCC2)cc(C(C)(F)F)c1
5. CC(C)(C)NS(=O)(=O)c1ccc(-c2sc(S(N)(=O)=O)nc2CC2CCCCC2)c2ccccc12
6. CC(C)(C)NS(=O)(=O)c1ccc(-c2sc(C(=O)N[C@H]3C[C@H](S(C)(=O)=O)C3)nc2CC2CCCCC2)c(Cl)c1Cl
7. CN(C(=O)c1nc(CC2CCCCC2)c(-c2ccc(S(=O)(=O)NC(C)(C)C)c3ccccc23)o1)C1CCOCC1

6.4/8.5/8.7
6.4/8.5/8.4
6.9/8.0/8.2
6.4/7.4/7.4
6.6/7.5/7.7
7.3/8.0/8.2
6.6/7.1/7.3

Respectfully, I request pIC50 (REN) for each entry included below.
1. CC(C)(C)NS(=O)(=O)c1ccc(-c2sc(C(=O)NN3CCOCC3)nc2CC2CCCCC2)c(Cl)c1Cl
2. CC(C)(C)NS(=O)(=O)c1ccc(-c2sc(C(=O)NCC(C)(C)C(=O)O)nc2CC2CCCCC2)cc1C(F)(F)F
3. CC(C)(O)CNC(=O)c1nc(CC2CCCCC2)c(-c2ccc(S(=O)(=O)NC(C)(C)C)c(C(F)F)c2F)s1

1. 6.9/8.7/8.7
2. 6.4/7.2/7.4
3. 7.0/8.5/8.7

* * *

Hi there, I'd appreciate the recorded pIC50 (FRET) for every entry that follows.
- Measurement target: RORγ ligand binding domain (LBD) (Homo sapiens (Human))
- Assay method text: TR-FRET Activity Assay (ligand sensing assay, LANCE)
- Conditions used: TR-FRET, interaction of RORγ-LBD with coactivator peptide

Past entries and their recorded results:
- CC(C)(C)NS(=O)(=O)c1ccc(-c2sc(C(=O)N3CC4(CCS(=O)(=O)CC4)C3)nc2CC2CCCCC2)c(Cl)c1Cl [6/45]: 7.1/7.9/8.0
- Cc1c(S(=O)(=O)NC(C)(C)C)ccc(-c2sc(C(=O)N[C@H]3C[C@H](C(=O)O)C3)nc2CC2CCCCC2)c1C(F)(F)F [7/14]: 5.8/8.5/8.7
- CC(C)(C)c1cc(-c2oc(C(N)=O)nc2CC2CCCCC2)cc(C(C)(C)C)c1 [Example 100]: 6.6/5.8/5.8

Look up pIC50 (FRET) for the entries below, preserving their order.
1. CC(C)(C)NS(=O)(=O)c1ccc(-c2oc(C(=O)NC3CCC(C)(C(=O)O)CC3)nc2CC2CCCCC2)c2ccccc12 (stereo not shown) [100/22]
2. CC(C)(O)CNC(=O)c1nc(CC2CCCCC2)c(-c2ccc(S(=O)(=O)NC(C)(C)C)c(C(F)F)c2F)s1 [6/18]
3. CC(C)(C)NS(=O)(=O)c1ccc(-c2oc(C(=O)N[C@H]3C[C@H](C(=O)O)C3)nc2CC2CCCCC2)c(Cl)c1Cl [100/17]

["5.9/6.8/7.0", "7.0/8.5/8.7", "6.1/7.1/7.0"]

Please supply pIC50 (FRET) for each of the following items, keeping them in order.
1. CC(C)(C)NS(=O)(=O)c1ccc(-c2sc(C(=O)NCC3(O)CCS(=O)(=O)CC3)nc2CC2CCCCC2)c2ccccc12 [6/5]
2. COC(c1nc(C(=O)NC2CCOCC2)sc1-c1cc(C(C)(C)C)cc(C2(C)CC2)c1)C1CCCCC1 (stereo not shown) [19/3]
3. CC(C)(C)NS(=O)(=O)c1ccc(-c2oc(C(=O)N[C@H]3C[C@H](C(=O)O)C3)nc2CC2CCCCC2)cc1C(C)(C)C [100/2]
4. CSc1cnc(CNC(=O)c2nc(CC3CCCCC3)c(-c3ccc(S(=O)(=O)NC(C)(C)C)c(Cl)c3Cl)s2)s1 [6/40]
5. CC(C)(C)NS(=O)(=O)c1ccc(-c2sc(C(=O)NCCC(C)(C)C(=O)O)nc2CC2CCCCC2)cc1C(C)(C)C [Example 7/1]
6. CC(C)COc1cc(-c2sc(C(=O)N[C@H]3C[C@H](C(=O)O)C3)nc2CC2CCCCC2)cc(C(C)(C)C)n1 [7/11]

6.6/8.5/8.7
6.8/7.1/7.1
5.5/6.4/6.3
7.0/8.2/8.3
6.1/6.8/6.9
5.9/7.4/7.4

Required: pIC50 (FRET), one value per compound below.
1. CC(C)(C)NS(=O)(=O)c1ccc(-c2sc(C(=O)NCC(C)(C)C(=O)O)nc2CC2CCCCC2)cc1C(F)(F)F [9/3]
2. CC(=O)NS(=O)(=O)c1nc(-c2cc(C(C)(C)C)cc(C(C)(C)C)c2)c(CC2CCCCC2)s1 [Example 3]
3. CC(C)(C)c1cc(-c2sc(C(=O)NC3CCOCC3)nc2CC2CCCCC2)cc(C2(C)CC2)c1 [Example 8]
4. CC(C)(C)NS(=O)(=O)c1ccc(-c2oc(C(=O)N[C@H]3C[C@H](C(=O)O)C3)nc2CC2CCCCC2)c2ccccc12 [100/13]
5. CC(C)(O)CNC(=O)c1nc(CC2CCCCC2)c(-c2ccc(S(=O)(=O)NC(C)(C)C)c(Cl)c2Cl)o1 [100/15]

["6.4/7.2/7.4", 5.1, "7.0/7.3/7.5", "6.1/7.0/7.1", "6.4/7.4/7.5"]

Please state, for each entry, its recorded pIC50 (FRET).
1. CC(C)(C)NS(=O)(=O)c1ccc(-c2sc(C(=O)NC3C[S+]([O-])C3)nc2CC2CCCCC2)c(Cl)c1Cl (stereo not shown) [15/5]
2. CC(C)(O)c1cc(-c2sc(C(=O)N[C@H]3C[C@@H](C(=O)O)C3)nc2CC2CCCCC2)cc(C2(C)CC2)c1 [9/10]
3. CC(C)(C)c1cc(-c2oc(C(=O)NC3CCOCC3)nc2CC2CCCCC2)cc(C2(C)CC2)c1 [100/18]
4. CC(C)(C)NS(=O)(=O)c1ccc(-c2sc(C(=O)NC3CS(=O)(=O)C3)nc2CC2CCCCC2)c(Cl)c1Cl [15/4]
5. CC(C)(C)NS(=O)(=O)c1ccc(-c2sc(C(=O)N3CC(C(C)(C)C(=O)O)C3)nc2CC2CCCCC2)c(Cl)c1Cl [6/37]

6.9/8.5/8.4
6.3/7.2/7.2
6.9/6.9/6.9
7.3/8.7/9.0
6.1

Batch of 6 compounds: report pIC50 (FRET) for each.
1. CC(C)(C)NS(=O)(=O)c1ccc(-c2sc(C(=O)NCCC(C)(C)C(N)=O)nc2CC2CCCCC2)cc1C(F)(F)F [Example 10]
2. CC(O)c1c(S(=O)(=O)NC(C)(C)C)ccc(-c2sc(C(=O)N3CC4(CCS(=O)(=O)CC4)C3)nc2CC2CCCCC2)c1Cl (stereo not shown) [21/10]
3. CC(C)(C)NS(=O)(=O)c1ccc(-c2sc(C(=O)N[C@H]3C[C@H](C(=O)O)C3)nc2CC2CCCCC2)c(F)c1OC(F)(F)F [19/10]
4. CC(C)(O)CNC(=O)c1nc(CC2CCCCC2)c(-c2ccc(S(=O)(=O)NC(C)(C)C)c3c(F)cccc23)s1 [19/8]
5. CC(C)(C)NS(=O)(=O)c1ccc(-c2sc(C(=O)NC3CCOCC3)nc2CC2CCCCC2)cc1C(C)(C)O [6/22]
6. CC(C)(O)CNC(=O)c1nc(CC2CCC2)c(-c2ccc(S(=O)(=O)NC(C)(C)C)c(Cl)c2Cl)s1 [Example 21]

["5.9/6.9/7.0", "5.9/6.7/6.7", "6.7/8.4/8.5", "7.0/7.7/7.8", "6.8/7.7/7.7", "7.0/8.1/8.2"]
